# procedureDetails: Cytotoxicity against Chinese hamster CHO-K1 cells incubated for 24 hrs by neutral red dye uptake assay
# Format: toxicity, cell-based, Cricetulus griseus
quantityMeasured: CC50 at 24 h (µM)
The response must be a number in µM with no trailing unit.

OCc1ccc(-c2ccc(SCc3ccc(-n4cncn4)cc3)nc2)cc1 = 41.3
OCc1ccc(-c2ccc(SCc3ccc(-c4ccc(N5CCOCC5)cc4)cc3)nc2)cc1 = 45.8
Cn1nccc1-c1ccc(SCc2ccc(-n3cncn3)cc2)cc1 = 44.8

We now examine a further compound.
(Q) Tell me measured CC50 at 24 h for COc1ccc2oc(SCc3ccc(-n4cncn4)cc3)nc2c1 please.
(A) 32.1
